assay.text: Quantitative High-Throughput drug screen in 47 multiple myeloma cell lines against the NCATS MIPE library collection: KHM11_PLB cell viability assay (AID 1918962); further: nearly all actives have a fitted effect of over 35% in size; further: potency means the concentration at half of the fitted maximal effect
particulars: KHM11 myeloma cell viability, CellTiter-Glo ATP luminescence, 48 h; series mostly up to 45.8 µM
Results filed as inconclusive are left out. Activity calls are given as the source filed them. The call rests on the fitted dose curve; in most records, active means well fitted cell-killing curve with a large enough effect; inconclusive means small, poorly fitted or top-dose-only effect, or effect the other way; inactive means no such curve, though single readings can be large or run the other way.
measured.quantity: Potency

[[record]]
compound = "Cc1ccc(C(=O)N(CCCN)[C@@H](c2oc3cc(Cl)ccc3c(=O)c2Cc2ccccc2)C(C)C)cc1"
measured_quantity = "Potency"
measured_value = "9.35 µM (active)"

[[record]]
compound = "Cc1ccc(C(=O)N(CCCN)[C@@H](c2nc3cc(Cl)ccc3c(=O)n2Cc2ccccc2)C(C)C)cc1"
measured_quantity = "Potency"
measured_value = "10.5 µM (active)"

[[record]]
compound = "CC(=O)NCCC(=O)N[C@@H](CCC(N)=O)C(=O)N[C@@H](CO)C(=O)N[C@@H](CCC(N)=O)C(=O)N[C@@H](CCC(N)=O)C(=O)N[C@H](C(=O)N[C@@H](Cc1ccccc1)C(=O)N[C@]1(C)CCCCCCC=CCCC[C@@](C)(C(=O)N[C@@H](CCC(N)=O)C(=O)N[C@@H](CC(N)=O)C(N)=O)NC(=O)[C@H](CC(C)C)NC(=O)[C@H](CC(C)C)NC(=O)[C@@H](CCCNC(=N)N)NC(=O)[C@H](Cc2c[nH]c3ccccc23)NC(=O)[C@H](CC(C)C)NC(=O)[C@H](CC(N)=O)NC1=O)[C@H](C)O"
measured_quantity = "Potency"
measured_value = "18.7 µM (active)"

[[record]]
compound = "CC[C@H]1OC(=O)[C@H](C)[C@@H](O[C@H]2C[C@@](C)(OC)[C@@H](O)[C@H](C)O2)[C@H](C)[C@@H](O[C@@H]2O[C@H](C)C[C@H](N(C)C)[C@H]2O)[C@](C)(O)C[C@H](C)C(=NOCOCCOC)[C@H](C)[C@@H](O)[C@]1(C)O"
measured_quantity = "Potency"
measured_value = "inactive"

[[record]]
compound = "Cc1ccc(S(=O)(=O)Nc2nc3ccccc3nc2Nc2ccc3nsnc3c2)cc1"
measured_quantity = "Potency"
measured_value = "0.575 µM (active)"

[[record]]
compound = "COc1cc(CNC(=O)CCCCC=CC(C)C)ccc1O"
measured_quantity = "Potency"
measured_value = "inactive"

[[record]]
compound = "CC1(C)C(N(O)C(=O)Nc2ccc(Cl)cc2)N(c2ccc(Cl)cc2)C(=O)N1CC(=O)NN=CC=Cc1ccc([N+](=O)[O-])o1 (stereo not given)"
measured_quantity = "Potency"
measured_value = "11.8 µM (active)"

[[record]]
compound = "CC1CNc2c(cccc2S(=O)(=O)N[C@@H](CCCN=C(N)N)C(=O)N2CC[C@@H](C)C[C@@H]2C(=O)O)C1 (stereo not given in full)"
measured_quantity = "Potency"
measured_value = "inactive"

[[record]]
compound = "CC1=C(C(=O)Nc2cc3cn[nH]c3cc2F)C(c2ccc(C(F)(F)F)cc2)CC(=O)N1 (stereo not given)"
measured_quantity = "Potency"
measured_value = "inactive"

[[record]]
compound = "CN1CCN(c2cccc(Nc3nc4c(-c5ccc(S(C)(=O)=O)cc5)cccn4n3)c2)CC1"
measured_quantity = "Potency"
measured_value = "2.35 µM (active)"

[[record]]
compound = "N[C@@H](CC(=O)N1CCn2c(nnc2C(F)(F)F)C1)Cc1cc(F)c(F)cc1F"
measured_quantity = "Potency"
measured_value = "inactive"

[[record]]
compound = "COc1ccc(-c2cc3nccn3c(Nc3ncccc3C(N)=O)n2)cc1OC"
measured_quantity = "Potency"
measured_value = "0.833 µM (active)"

[[record]]
compound = "CCOC(=O)[C@H](CCc1ccccc1)N[C@@H](C)C(=O)N1CCCC1C(=O)O (stereo not given in full)"
measured_quantity = "Potency"
measured_value = "inactive"

[[record]]
compound = "O=C(NCCCCN1CCOCC1)c1cc2ccccc2o1"
measured_quantity = "Potency"
measured_value = "inactive"

[[record]]
compound = "CSc1cccc(Nc2ncc3cc(-c4c(Cl)cccc4Cl)c(=O)n(C)c3n2)c1"
measured_quantity = "Potency"
measured_value = "0.0332 µM (active)"


* * *

assay.text: Quantitative High-Throughput drug screen in 47 multiple myeloma cell lines against the NCATS MIPE library collection: RPMI8226_ATCC cell viability assay (AID 1919871); further: nearly all actives have a fitted effect of over 30% in size
particulars: RPMI8226 myeloma viability, CellTiter-Glo ATP luminescence, 48 h; series mostly up to 45.8 µM
Inconclusive results are not listed. Calls of active or inactive are those of the source. The call rests on the fitted dose curve; in most records, active means well fitted cell-killing curve with a large enough effect; inconclusive means small, poorly fitted or top-dose-only effect, or effect the other way; inactive means no such curve, though single readings can be large or run the other way.
Labels: 1.0 for active, 0.0 for inactive

[[record]]
compound = "COc1ccnc(CS(=O)c2nc3ccc(OC(F)F)cc3[nH]2)c1OC (stereo not given)"
class_assignment = 0.0

[[record]]
compound = "Cc1[nH]c(C=C2C(=O)Nc3ccc(S(=O)(=O)N(C)c4cccc(Cl)c4)cc32)c(C)c1C(=O)N1CCN(C)CC1"
class_assignment = 1.0

[[record]]
compound = "CCC(=C(c1ccc(O)cc1)c1ccc(OCCNC)cc1)c1ccccc1"
class_assignment = 1.0

[[record]]
compound = "CC1(C)[C@H]2CC[C@]3(C)[C@@H](C(=O)C=C4[C@@H]5C[C@@](C)(C(=O)O)CC[C@]5(C)CC[C@]43C)[C@@]2(C)CC[C@@H]1O"
class_assignment = 0.0

[[record]]
compound = "O=C(NCCCCN1CCOCC1)c1cc2ccccc2o1"
class_assignment = 0.0


* * *

Test system: CRL-7250
assay.text: Cytotoxic Profiling of Annotated Libraries Using Quantitative High-Throughput Screening (AID 1296008); further: nearly all actives have a fitted effect of over 60% in size
particulars: Five cell lines viability, CellTiter-Glo ATP luminescence, 48-72 h
Results filed as inconclusive are left out. Calls of active or inactive are those of the source. Calls come from the whole dose curve; as a rule, active = well fitted inhibition curve with a large enough effect; inconclusive = small, poorly fitted or top-dose-only effect; inactive = flat fitted curve, though single readings scatter.
Labels: label 1 for active, label 0 for inactive

[[record]]
molecule = "O=C(Nc1ccccc1)Nc1ccc(-c2ccc(C(=O)[C@H]3CCC[C@H]3C(=O)O)cc2)cc1"
system_name = "CRL-7250"
class_assignment = "label 0"

[[record]]
molecule = "CN(C)c1nc(Cc2ccc(NC(=O)c3ccc(C(F)(F)F)cc3)cc2)nc(N(C)C)c1CC(=O)O"
system_name = "CRL-7250"
class_assignment = "label 0"

[[record]]
molecule = "CC(C)(OCc1nn(Cc2ccccc2)c2ccccc12)C(=O)O"
system_name = "CRL-7250"
class_assignment = "label 0"

[[record]]
molecule = "CC1(C)CC(=O)c2c(C(F)(F)F)nn(-c3ccc(C(N)=O)c(NC4CCC(O)CC4)c3)c2C1 (stereo not drawn)"
system_name = "CRL-7250"
class_assignment = "label 1"

[[record]]
molecule = "CN(C)CCN(C)C(=O)c1ccc(NC(=O)Nc2ccc(-c3nc(N4CCOCC4)c4ccn(CC(F)(F)F)c4n3)cc2)cc1"
system_name = "CRL-7250"
class_assignment = "label 1"

[[record]]
molecule = "Cc1ccc2c(c1)c1c(n2CCc2ccc(C)nc2)CCN(C)C1"
system_name = "CRL-7250"
class_assignment = "label 0"

[[record]]
molecule = "N#CC1(c2cccc(C(=O)Nc3cc(Oc4ccc5nc(NC(=O)C6CC6)sc5n4)ccc3F)c2Cl)CC1"
system_name = "CRL-7250"
class_assignment = "label 1"

[[record]]
molecule = "COc1cc(F)c(C(C)C)cc1-c1ccc(C(F)(F)F)cc1CN1C(=O)O[C@H](c2cc(C(F)(F)F)cc(C(F)(F)F)c2)[C@@H]1C"
system_name = "CRL-7250"
class_assignment = "label 0"


* * *

assay.text: Quantitative High-Throughput drug screen in 47 multiple myeloma cell lines against the NCATS MIPE library collection: XG6_PLB cell viability assay (AID 1919865); further: nearly all actives have a fitted effect of over 40% in size
particulars: XG6 myeloma viability, CellTiter-Glo ATP luminescence, 48 h; series mostly up to 45.8 µM
Results filed as inconclusive are left out. Calls of active or inactive are those of the source. Calls follow the shape of the dose curve; as a rule, active = well fitted cell-killing curve with a large enough effect; inconclusive = small, poorly fitted or top-dose-only effect, or effect the other way; inactive = no such curve, though single readings can be large or run the other way.
Labels: active, inactive

[[record]]
compound = "C[C@@H]1[C@H](O)[C@@H](C)C=CC=CC=CC=CC=CC=CC=C[C@H](O[C@@H]2O[C@H](C)[C@H](O)[C@H](N)[C@@H]2O)C[C@@H]2O[C@](O)(C[C@@H](O)C[C@@H](O)[C@H](O)CC[C@@H](O)C[C@@H](O)CC(=O)O[C@H]1C)C[C@H](O)[C@@H]2C(=O)O"
class_assignment = "inactive"

[[record]]
compound = "O=C(Nc1cccc(Cl)c1)Nc1ncc(CCNc2ncnc3ccsc23)s1"
class_assignment = "active"

[[record]]
compound = "C#C[C@]1(O)CC[C@H]2[C@H]3CCc4cc(OC)ccc4[C@H]3CC[C@@]21C"
class_assignment = "active"

[[record]]
compound = "CN1CCN2c3ncccc3Cc3ccccc3C2C1 (stereo unspecified)"
class_assignment = "inactive"

[[record]]
compound = "C[C@]12C=CC(=O)C=C1CC[C@@H]1[C@@H]2[C@@H](O)C[C@@]2(C)[C@@H]1CC[C@]2(O)C(=O)CO"
class_assignment = "inactive"

[[record]]
compound = "O=c1cc(-c2ccc(O)c(O)c2)oc2cc(O)cc(O)c12"
class_assignment = "active"


Values compiled from PubChem BioAssay (NCATS).
